Biological target: Aurora kinase A (Homo sapiens)
Test: Inhibition of recombinant human Aurora A (1 to 403 residues) expressed in Escherichia coli using STK-substrate 2-biotin as substrate incubated for 40 mins in presence of 2.4uM ATP by HTRF assay
property: IC50 (nM)
The response must be a number in nM with no trailing unit.

Query :: Any idea what IC50 was measured for C=CC(=O)Nc1ccc(-c2nc(Nc3cc(C)[nH]n3)c3ccc(N4CCN(C)CC4)cc3n2)cc1 ?
Result :: 2.77

* * *

Target: Aurora kinase A (Homo sapiens)
Sequence (O14965 whole entry): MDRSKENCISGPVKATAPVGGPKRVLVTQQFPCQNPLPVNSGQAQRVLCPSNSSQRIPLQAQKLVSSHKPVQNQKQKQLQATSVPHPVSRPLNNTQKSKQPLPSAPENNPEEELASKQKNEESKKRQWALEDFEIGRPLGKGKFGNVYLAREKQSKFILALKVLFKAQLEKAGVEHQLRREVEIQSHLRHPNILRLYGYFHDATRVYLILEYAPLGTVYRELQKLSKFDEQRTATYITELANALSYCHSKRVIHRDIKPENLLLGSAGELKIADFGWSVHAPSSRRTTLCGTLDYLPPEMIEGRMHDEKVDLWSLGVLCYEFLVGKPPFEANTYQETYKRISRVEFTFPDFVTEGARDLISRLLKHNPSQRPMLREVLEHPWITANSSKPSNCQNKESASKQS
Assay: Inhibition of recombinant human Aurora A (1 to 403 residues) expressed in Escherichia coli using STK-substrate 2-biotin as substrate incubated for 60 mins in presence of 24 uM ATP by HTRF assay
property: pIC50
// scale note: pIC50 = -log10(conc_M); give the bare number

Query :: Any idea what pIC50 was measured for C=CC(=O)Nc1ccc(-c2nc(Nc3cc(C)[nH]n3)c3ccc(N4CCN(C)CC4)cc3n2)cc1 ?
Result :: 7.63

* * *

Biological target: UniProtKB O14965
Sequence (O14965 whole entry): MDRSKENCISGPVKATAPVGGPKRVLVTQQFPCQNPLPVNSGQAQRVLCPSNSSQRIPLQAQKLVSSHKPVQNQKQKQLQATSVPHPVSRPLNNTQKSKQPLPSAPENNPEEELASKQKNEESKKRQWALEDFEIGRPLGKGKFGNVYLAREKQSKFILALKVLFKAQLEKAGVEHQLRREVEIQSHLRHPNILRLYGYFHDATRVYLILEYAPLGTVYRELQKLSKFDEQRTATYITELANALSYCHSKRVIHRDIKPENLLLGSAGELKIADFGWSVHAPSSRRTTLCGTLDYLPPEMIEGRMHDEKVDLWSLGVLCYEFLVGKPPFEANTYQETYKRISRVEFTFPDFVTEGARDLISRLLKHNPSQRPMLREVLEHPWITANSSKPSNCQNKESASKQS
Experiment: Inhibition of recombinant human Aurora A (1 to 403 residues) expressed in Escherichia coli using STK-substrate 2-biotin as substrate incubated for 60 mins in presence of 0.48 uM ATP by HTRF assay
property: IC50 (nM)
The response must be a number in nM with no trailing unit.

Query :: Any idea what IC50 was measured for C=CC(=O)Nc1ccc(-c2nc(Nc3cc(C)[nH]n3)c3ccc(N4CCN(C)CC4)cc3n2)cc1 ?
Result :: 3.41

* * *

Biological target: Aurora kinase A (Homo sapiens)
Assay: Inhibition of recombinant human Aurora A (1 to 403 residues) expressed in Escherichia coli using STK-substrate 2-biotin as substrate incubated for 15 mins in presence of 24 uM ATP by HTRF assay
property: pIC50
// scale note: pIC50 = -log10(conc_M); give the bare number

Query :: Any idea what pIC50 was measured for C=CC(=O)Nc1ccc(-c2nc(Nc3cc(C)[nH]n3)c3ccc(N4CCN(C)CC4)cc3n2)cc1 ?
Result :: 8.28
